Data provenance: ChEMBL document CHEMBL4184137

System: Plasmodium falciparum
Assay: Gametocytocidal activity against transgenic GFP-fused Plasmodium falciparum NF54 […] gametocytes after 72 hrs by Mitotracker Red CMH2XRos staining-based confocal microscopic method
Type: functional, organism-based
Conditions: NF54, 72 h
property_label: pIC50
# reply with the number alone; pIC50 is -log10 of concentration in mol/L

Problem: For the compound CC(C)(C)c1ccc(NC(=O)NOCCCCCC(=O)NO)cc1 , give its measured pIC50 value.
Result: 5.46

---

Experiment: Selectivity index, ratio of IC50 for HEK293 cells to IC50 for Plasmodium falciparum
Assay type: toxicity
Conditions: human, read-out: Ratio IC50
property_label: selectivity ratio

Problem: For the compound C/C=C1\NC(=O)[C@H]2CSSCC/C=C/[C@H](CC(=O)N[C@H](C(C)C)C(=O)N2)OC(=O)[C@H](C(C)C)NC1=O [ROMIDEPSIN] , give its measured selectivity ratio value.
Result: < 1
